Tested on: Aspergillus niger
Assay: Antimicrobial activity against Aspergillus niger MTCC 282
Format: functional
readout_type: MIC

Lookup result for COC1=CC(=O)C[C@@H](C)[C@]12Oc1c(Cl)c(OC)cc(OC)c1C2=O ; measured MIC: 100 µg/mL

Lookup result for COc1cc(/C=C/C(=O)N2N=C(c3ccc([N+](=O)[O-])cc3)OC2c2cc3ccccc3nc2Cl)cc(OC)c1OC (stereo not drawn) ; measured MIC: 100 µg/mL

Lookup result for O=C(/C=C/c1cccc([N+](=O)[O-])c1)N1N=C(c2ccc([N+](=O)[O-])cc2)OC1c1cc2ccccc2nc1Cl (stereo not drawn) ; measured MIC: 100 µg/mL
